Just for reference, patent US20210355194A1 is where these values come from.

target: SARS-CoV-2 spike on live SARS-CoV-2 virus (SARS-CoV-2, UniProt P0DTC2 14-1273); test: cell-based or functional assay
READOUT_NAME: EC80 (µg/mL)
Response body: numeric value in µg/mL, unit text excluded.

Ask | Which EC80 is reported for this binder? variant 5-37 (Fc fusion) VHH: EVQLVESGGGLVQPGGSLRLSCAASGSTFSINAMGWFRQAPGKEREFVGGISRSGATTNYADSVKGRFTISADNSKNTAYLQMNSLKPEDTAVYYCAADGVPEYSDYASGPVWGQGTLVTVSS
Reply | 12.4

Ask | Another binder to look at: variant 6-85 (Fc fusion) VHH: EVQLVESGGGLVQPGGSLRLSCAASGGTFSVFAMGWFRQAPGKEREFVSAINWSGGSLLYADSVKGRFTISADNSKNTAYLQMNSLKPEDTAVYYCALFGDFDYWGQGTLVTVSS
Reply | 1.06

Ask | Another binder to look at: variant 6-60 (Fc fusion) VHH: EVQLVESGGGLVQPGGSLRLSCAASGDTYGSYWMGWFRQAPGKEREFVATISQSGAATAYADSVKGRFTISADNSKNTAYLQMNSLKPEDTAVYYCAGLLRYSGTYYDAFDVWGQGTLVTVSS
Reply | 0.237

Ask | Another binder to look at: variant 6-76 (Fc fusion) VHH: EVQLVESGGGLVQPGGSLRLSCAASGLAFDFDGMGWFRQAPGKEREGVAAINSGGSTYYADSVKGRFTISADNSKNTAYLQMNSLKPEDTAVYYCARFFRAHDYWGQGTLVTVSS
Reply | 0.426

Ask | Another binder to look at: variant 5-1 (Fc fusion) VHH: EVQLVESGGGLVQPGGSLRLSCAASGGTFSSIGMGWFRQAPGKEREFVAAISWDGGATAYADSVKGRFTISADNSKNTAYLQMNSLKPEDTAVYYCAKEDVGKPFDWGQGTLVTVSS
Reply | 0.811

Ask | Another binder to look at: variant 6-78 (Fc fusion) VHH: EVQLVESGGGLVQPGGSLRLSCAASGRTYDAMGWFRQAPGKEREFVASVTSGGYTHYADSVKGRFTISADNSKNTAYLQMNSLKPEDTAVYYCAKFGRKIVGATELDYWGQGTLVTVSS
Reply | 13.8

Ask | Another binder to look at: variant 5-20 (Fc fusion) VHH: EVQLVESGGGLVQPGGSLRLSCAASGRTIVPYTMGWFRQAPGKERELVAAISPSAFTEYADSVKGRFTISADNSKNTAYLQMNSLKPEDTAVYYCAARRWGYDWGQGTLVTVSS
Reply | 0.376

Ask | Another binder to look at: variant 6-3 (Fc fusion) VHH: EVQLVESGGGLVQPGGSLRLSCAASGFTFSPSWMGWFRQAPGKEREFVATINEYGGRNYADSVKGRFTISADNSKNTAYLQMNSLKPEDTAVYYCARVDRDFDYWGQGTLVTVSS
Reply | 0.115

Ask | Another binder to look at: variant 6-73 (Fc fusion) VHH: EVQLVESGGGLVQPGGSLRLSCAASGHTFSGYAMGWFRQAPGKEREFVAVITREGSTYYADSVKGRFTISADNSKNTAYLQMNSLKPEDTAVYYCARLGGEGFDYWGQGTLVTVSS
Reply | 2.02

Ask | Another binder to look at: variant 6-55 (Fc fusion) VHH: EVQLVESGGGLVQPGGSLRLSCAASGFTMSSSWMGWFRQAPGKEREFVARITSGGSTGYADSVKGRFTISADNSKNTAYLQMNSLKPEDTAVYYCASVDGYFDYWGQGTLVTVSS
Reply | 0.445

Ask | Another binder to look at: variant 6-26 (Fc fusion) VHH: EVQLVESGGGLVQPGGSLRLSCAASGDTFSTSWMGWFRQAPGKEREFVATINTGGGTNYADSVKGRFTISADNSKNTAYLQMNSLKPEDTAVYYCARVTTSFDYWGQGTLVTVSS
Reply | 3.61

Ask | Another binder to look at: variant 5-34 (Fc fusion) VHH: EVQLVESGGGLVQPGGSLRLSCAASGRTFSRYIMGWFRQAPGKEREFVAAISWSGGDNTYYADSVKGRFTISADNSKNTAYLQMNSLKPEDTAVYYCAAYRIVVGGTSPGDWRWGQGTLVTVSS
Reply | 0.57

Ask | Another binder to look at: variant 6-63 (Fc fusion, also called VHH nanobody 6-63) VHH: EVQLVESGGGLVQPGGSLRLSCAASGQTFNMGWFRQAPGKEREFVAAIGSGGSTSYADSVKGRFTISADNSKNTAYLQMNSLKPEDTAVYYCWRLGNDYFDYWGQGTLVTVSS
Reply | 0.0579

Ask | Another binder to look at: variant 6-20 (Fc fusion) VHH: EVQLVESGGGLVQPGGSLRLSCAASGSTLPYHAMGWFRQAPGKEREFVAAITWNGASTSYADSVKGRFTISADNSKNTAYLQMNSLKPEDTAVYYCARDRYYDTSASYFESETWGQGTLVTVSS
Reply | 2.31
